Experimental Protocol: 535nm fluorescence optical interference, confirmation, artefact control for HGIII-sPLA2 inhibitor project, biochemical, QFRET (AID 743282);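 note: 0% = DMSO with substrate plus product and 100% = DMSO with substrate alone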
Condition: BODIPY FL product fluorescence interference, at 12.2 µM, stronger effect = higher value
The whole screen tested about 2,000 compounds, of which about 170 (8.5%) were called active. The list is a sample of the results.

Molecule	inhibition, %
CC(=O)Oc1ccc2c(c1)C(=O)c1ccccc1C2=O	-2.62
C/C(=N\NC(=S)Nc1ccc(C)cc1)c1cc2ccccc2o1	-2.09
O=C(NNC(=S)Nc1ccc(F)cc1)[C@H]1C[C@@H]1c1ccccc1	1.83
COc1cc(OC)cc(C2=Cc3ccccc3C(CC(=O)c3ccco3)N2c2ccc(-c3cnc(OC)nc3)cc2)c1 (configuration not stated)	-14
CCCCn1c(N)c(N(CCOC)C(=O)COc2c(C)cccc2C)c(=O)[nH]c1=O	-7.38
Cn1c2c(c(=O)n(C)c1=O)C1c3ccccc3OCC1C(C)(C)O2 (configuration not stated)	-3.5
NC(c1csc(NC(=O)Nc2ccccc2Oc2ccccc2)n1)c1ccccc1Cl (configuration not stated)	4.15
O=C(/C=C/c1c(Cl)cccc1Cl)NCc1ccccc1	-0.31
CCCCn1c(=S)[nH]c2ccccc2c1=O	-2.71
Cc1ccc(-c2csc(NNC(=O)c3ccccc3)n2)cc1	6.07
Cn1cc(Cl)c(C(=O)NNC(=S)Nc2cccc(Cl)c2)n1	0.3
COc1cc(NS(=O)(=O)c2ccc3ccccc3c2)c2ncccc2c1	5.89
Cc1ccc2sc(NNC(=O)c3ccc4c(c3)OCCO4)nc2c1C	3.21
O=C(NC(=S)Nc1ncccn1)c1ccccc1Br	-4.76
CC(C)c1ccc(Nc2nnc(SCC(=O)c3nnc(-c4ccccc4)o3)s2)cc1	-8.04
NC(Cc1ccccc1)c1csc(Nc2cc(Oc3ccccc3)ncn2)n1 (configuration not stated)	-10.4
C/C(=N\Nc1ccc(Cl)nn1)c1ccccc1O	1.8
CSC1=NN(c2ccccc2)CN(c2ccccc2)N1C	4.75
S=C(NNC(=S)NC1CC2CCC1C2)NC1CC2C=CC1C2 (configuration not stated)	3.69
Cc1cccc(C)c1NC(=O)CN1C(=O)C(C)Oc2ccccc21 (configuration not stated)	-4.96
CCc1cc(-c2n[nH]c(=S)n2CC(C)C)cs1	-0.76
CSc1ccc(NC(=O)/C=C/C(=O)O)cc1	-8.22
C#CCCCc1nc2ccccc2c(=O)n1N	-6.82
O=C(COc1ccc(S(=O)(=O)NCc2ccccc2)cc1)N1CCOCC1	-4.58
COC(=O)C(C)n1cnc2c(nnn2-c2ccc(F)cc2)c1=O (configuration not stated)	-6.41
COc1ccc(C(=O)Nc2sc(C)c(C)c2CN2CCOCC2)cc1	-13.2
Nc1[nH]c(C(=O)c2ccccc2)c(-c2ccc(Br)cc2)c1C(=O)NC1CC1	-0.53
C/C(=N\NC(=O)CSc1nc2ccccc2c(=O)n1-c1ccccc1C)c1cccs1	-14.6
CCOC12CC(C)(C)CC(C)(CC3=C1C(=O)CC(C)(C)C3)C2 (configuration not stated)	-12.7
CCOc1ccc2[nH]c(=S)sc2c1	-2.18
N#CC1(Nc2ccc(-c3ccc(Cl)cc3)cc2)CCCC1	6.64
CCOC(=O)NC(=O)/C(C#N)=C\c1ccccc1	-4.97
CC(C)c1cc(C(=O)N/N=C/c2ccoc2)c(O)c(C(C)C)c1	4.05
CC(=O)c1nnn(-c2ccc(Cl)cc2C#N)c1C	-6.79
Brc1ccccc1C1Nc2cccc3cccc(c23)N1	16.4
COc1ccnc(NC(=S)N2CCN(c3ncc(C(F)(F)F)cc3Cl)CC2)c1	-6.49
O=C(NN1C(=O)C2C3C=CC(C3)C2C1=O)c1ccco1 (configuration not stated)	-5.42
COc1ccccc1OCC(=O)OCn1c(SC)nnc(C)c1=O	0.95
COc1cc(/C=N/n2c(C)n[nH]c2=S)ccc1OCc1ccccc1	-3.5
CC(C(=O)Nc1ccccc1-c1ccccc1)N1CCOCC1 (configuration not stated)	-7.3
O=C(N/N=C/c1cc(Cl)cc([N+](=O)[O-])c1O)C(O)(c1ccccc1)c1ccccc1	5.59
COc1ccc(C(=O)NNC(=S)NC(=O)c2ccccc2)cc1	-1.93
Cc1cccc(-n2cnc(C(=O)NNC(=S)Nc3ccccc3)c2)n1	-2.38
CCOC(=O)C1(Cc2cccc(OC)c2)CCCN(C(=O)CCSC)C1 (configuration not stated)	-20.8
Cc1sc2nc(SCC(=O)c3ccc(O)c(O)c3)n(Cc3ccco3)c(=O)c2c1C	0.57
Cc1cccc(N2CCN(c3ccc(NC(=O)/C=C\C(=O)O)cc3)CC2)c1	3.01
O=C(Nc1cccc(F)c1)c1cc(-c2ccco2)nc2ccccc12	4.81

Reference source for all entries: PubChem BioAssay AID743282
